# assay: Cytotoxicity against HK-2 cells assessed as inhibition of cell proliferation incubated for 72 hrs by MTT assay
# Type: toxicity, cell-based
# condition-context: human
readout-type: IC50 at 72 h (nM)
Use nM as the unit, but write only the number.

Just so you know, measured IC50 at 72 h for O=C(/C=C/c1ccccc1)Nc1cc(-c2ccnc(N3CCC(CO)CC3)c2)ccn1 came out at 372

###

# assay: Cytotoxicity against human MCF-10A cells assessed as inhibition of cell proliferation incubated for 72 hrs by MTT assay
# Type: toxicity, cell-based
readout-type: IC50 at 72 h

Value of measured IC50 at 72 h for the entry O=C(/C=C/c1ccccc1)Nc1cc(-c2ccnc(N3CCC(CO)CC3)c2)ccn1 : 18.6 µM
